tested on: red blood cells; details: 25
Where a SMILES comes first, the peptide text is derived from it. [ ]: non-standard residue; d: D form. ξ: configuration not given here. Oic = O=C(O)[C@@H]1C[C@@H]2CCCC[C@@H]2N1; ξTic = O=C(O)C1Cc2ccccc2CN1; ξOic = O=C(O)C1CC2CCCCC2N1
# note: exactly 4% is not below, so it is 0; use 1 for % hemolysis 100/25 μM (second value) strictly under it

Below, 4 compounds whose answers are already recorded.
| Compound | Class |
| --- | --- |
| CC(=O)NCC(=O)N[C@@H](Cc1ccccc1)C(=O)N1[C@H](C(=O)NCC(=O)N[C@@H](CCCCN)C(=O)N2[C@H](C(=O)NCC(=O)N[C@@H](Cc3ccccc3)C(=O)N3[C@H](C(=O)NCC(=O)N[C@@H](CCCCN)C(=O)N[C@@H](CCCCN)C(=O)N[C@@H](CCCCN)C(=O)N[C@@H](CCCCN)C(=O)N[C@@H](CCCCN)C(N)=O)C[C@@H]4CCCC[C@@H]43)C[C@@H]3CCCC[C@@H]32)C[C@@H]2CCCC[C@@H]21 [FKAB-1Gf, Ac-GF-Oic-GK-Oic-GF-Oic-GKKKKK-CONH2] (Ac-GF[Oic]GK[Oic]GF[Oic]GKKKKK-NH2) | 1 |
| CC(=O)NCC(=O)N[C@@H](Cc1ccccc1)C(=O)NCC(=O)N1C(C(=O)NCC(=O)N[C@@H](CCCCN)C(=O)NCC(=O)N2C(C(=O)NCC(=O)N[C@@H](Cc3ccccc3)C(=O)NCC(=O)N3C(C(=O)NCC(=O)N[C@@H](CCCCN)C(=O)NCC(=O)N[C@@H](CCCCN)C(=O)N[C@@H](CCCCN)C(=O)N[C@@H](CCCCN)C(=O)N[C@@H](CCCCN)C(N)=O)CC4CCCCC43)CC3CCCCC32)CC2CCCCC21 (some centres unmarked) [FKAB-1Gf1] (Ac-GFG[ξOic]GKG[ξOic]GFG[ξOic]GKGKKKK-NH2) | 1 |
| CC(=O)NCC(=O)N[C@@H](Cc1ccccc1)C(=O)N1Cc2ccccc2CC1C(=O)NCC(=O)NCC(=O)N[C@@H](CCCCN)C(=O)N1Cc2ccccc2CC1C(=O)NCC(=O)NCC(=O)N[C@@H](Cc1ccccc1)C(=O)N1Cc2ccccc2CC1C(=O)NCC(=O)NCC(=O)N[C@@H](CCCCN)C(=O)N1Cc2ccccc2CC1C(=O)N[C@@H](CCCCN)C(=O)N[C@@H](CCCCN)C(=O)N[C@@H](CCCCN)C(=O)N[C@@H](CCCCN)C(N)=O (some centres unmarked) [FKAB-1Gg1] (Ac-GF[ξTic]GGK[ξTic]GGF[ξTic]GGK[ξTic]KKKK-NH2) | 1 |
| CC(=O)N[C@@H](Cc1ccccc1)C(=O)N1Cc2ccccc2CC1C(=O)N1C(C(=O)N[C@@H](CCCCN)C(=O)N2Cc3ccccc3CC2C(=O)N2C(C(=O)N[C@@H](Cc3ccccc3)C(=O)N3Cc4ccccc4CC3C(=O)N3C(C(=O)N[C@@H](CCCCN)C(=O)N4Cc5ccccc5CC4C(=O)N[C@@H](CCCCN)C(=O)N[C@@H](CCCCN)C(=O)N[C@@H](CCCCN)C(=O)N[C@@H](CCCCN)C(N)=O)CC4CCCCC43)CC3CCCCC32)CC2CCCCC21 (some centres unmarked) [FKAB-1Gc] (Ac-F[ξTic][ξOic]K[ξTic][ξOic]F[ξTic][ξOic]K[ξTic]KKKK-NH2) | 0 |

Given the entry CC(=O)NCC(=O)N1Cc2ccccc2CC1C(=O)N1C(C(=O)N[C@@H](CCCCN)C(=O)N2Cc3ccccc3CC2C(=O)N2C(C(=O)NCC(=O)N3Cc4ccccc4CC3C(=O)N3C(C(=O)N[C@@H](CCCCN)C(=O)N4Cc5ccccc5CC4C(=O)N[C@@H](CCCCN)C(=O)N[C@@H](CCCCN)C(=O)N[C@@H](CCCCN)C(=O)N[C@@H](CCCCN)C(N)=O)CC4CCCCC43)CC3CCCCC32)CC2CCCCC21 (some centres unmarked) [FKAB-1Ge] (Ac-G[ξTic][ξOic]K[ξTic][ξOic]G[ξTic][ξOic]K[ξTic]KKKK-NH2) , would its reported % hemolysis 100/25 μM (second value) be below 4%? 0
